The measurements presented in this section are drawn from patent US8329726B2.

- ASSAYED_SYSTEM: recombinant human c-Met/HGF receptor (Homo sapiens)
- Construct: His tag (pBlueBacHis2A vector); made in house; host or cells: Hi-5 cells (Trichoplusia ni), baculovirus
- Sequence (P08581 1078-1337): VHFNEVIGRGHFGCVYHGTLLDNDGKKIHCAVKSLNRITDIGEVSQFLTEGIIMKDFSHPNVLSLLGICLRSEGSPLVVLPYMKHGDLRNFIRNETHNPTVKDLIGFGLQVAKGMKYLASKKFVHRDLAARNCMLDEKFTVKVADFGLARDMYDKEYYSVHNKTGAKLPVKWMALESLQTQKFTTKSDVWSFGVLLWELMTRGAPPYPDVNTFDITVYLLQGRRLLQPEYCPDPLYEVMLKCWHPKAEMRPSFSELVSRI
- ASSAY_TEXT: In vitro receptor tyrosine kinase assay (DELFIA), c-Met/HGF receptor
- Format: biochemical
- ASSAY_CONDITIONS: read-out: CMET IC50
Recorded IC50, one value per entry.

1) CN(C(=O)CC(=O)Nc1ccc(Oc2ccnc3cc(C(=O)N(C)N(C)C)sc23)c(F)c1)c1ccccc1    250 to 500 nM
2) O=C(O)Cn1cnc(-c2cc3nccc(Oc4ccc(NC(=O)CC(=O)Nc5ccccc5)cc4F)c3s2)c1    < 50 nM
3) CCn1cc(-c2cc3nccc(Oc4ccc(NC(=O)CC(=O)Nc5ccccc5OC)cc4F)c3s2)nc1C    50 to 250 nM
4) CNC(=O)N1CCN(Cc2ccc(-c3cc4nccc(Oc5ccc(NC(=O)N6CCN(c7ccccc7)C6=O)cc5F)c4s3)cc2)CC1    < 50 nM
5) CN1CC=C(c2cc3nccc(Oc4ccc(NC(=O)CC(=O)N(C)c5ccccc5)cc4F)c3s2)CC1    < 50 nM

Lab book: IC50 of CN(c1ccc(NC(=O)C2(C(=O)Nc3ccccc3)CC2)cc1F)c1ccnc2cc(-c3cn(C)cn3)sc12 noted as 50 to 250 nM

Lab book: IC50 of CCn1cnc(-c2cc3nccc(Oc4ccc(NC(=O)N5CCN(c6ccc(F)cc6)C5=O)cc4F)c3s2)c1 noted as < 50 nM

Lab book: IC50 of O=C1N(C(=S)Nc2ccc(Oc3ccnc4cc(-c5cn(CCN6CCCC6)cn5)sc34)c(F)c2)CCN1c1ccc(F)cc1 noted as < 50 nM

Lab book: IC50 of O=C(Nc1ccc(Oc2ccnc3cc(-c4cn(CCN5CCCC5)cn4)sc23)c(F)c1)C1CCN(c2ccccc2)C1=O (centres unmarked) noted as 50 to 250 nM
